Where these numbers come from: PubChem BioAssay (NCI)

system: K-562 leukemia; experiment: NCI-60 one-dose screen, 48 h (100 = growth as untreated, 0 = no growth, -100 = all killed); settings: 10 µM unless noted
The panel holds about 83,000 compounds, 20% with a hit somewhere; the sample as a whole holds those more often.
value.type: growth (%)
Give bare numbers, in %.

[
  {
    "compound": "COc1cc(-c2ccc(N=Nc3c(O)c(C(=O)Nc4ccccc4OC)cc4ccccc34)c(OC)c2)ccc1N=Nc1c(O)c(C(=O)Nc2ccccc2OC)cc2ccccc12",
    "target": "K-562 leukemia",
    "unit.symbol": "%",
    "growth": 90.6
  },
  {
    "compound": "O=C(c1ccccc1)c1ccc(N2C(=O)C3C4c5ccccc5C(/C=C/C(=O)c5ccccn5)(c5ccccc54)C3C2=O)cc1 (stereo not drawn)",
    "target": "K-562 leukemia",
    "unit.symbol": "%",
    "growth": 15.9
  },
  {
    "compound": "CC1(C)CC(=O)c2c(ccc(C(=O)C[C@H](N)CO)c2N)O1",
    "target": "K-562 leukemia",
    "unit.symbol": "%",
    "growth": 37.1
  },
  {
    "compound": "O=C(CCl)N1c2cccc3cccc(c23)N(C(=O)CCl)C1c1cn(-c2ccccc2)nc1-c1cccc([N+](=O)[O-])c1",
    "target": "K-562 leukemia",
    "unit.symbol": "%",
    "growth": 33.3
  },
  {
    "compound": "COc1ccc(O)c(-c2cc(-c3ccccc3)c(C#N)c(=O)[nH]2)c1",
    "target": "K-562 leukemia",
    "unit.symbol": "%",
    "growth": 68.9
  }
]

Fill in growth for each of the 3 compounds listed.
1. CCNCCNc1cc(-c2cccc(C(F)(F)F)c2)c(C#N)c2nc3ccccc3n12
2. NS(=O)(=O)c1cnccc1-n1ccc(=O)c(S(N)(=O)=O)c1
3. C=C1C(=O)O[C@H]2[C@H]1CC/C(Cn1cc(CNCCc3c[nH]c4ccc(Cl)cc34)nn1)=C\CC[C@@]1(C)O[C@@H]21

result:
1: -65.8; 2: 84.1; 3: 2.7

* * *

tested on: NCI/ADR-RES ovarian; assay: NCI-60 one-dose screen, 48 h (100 = growth as untreated, 0 = no growth, -100 = all killed); conditions: 10 µM unless noted
About 83,000 compounds went through this panel and 20% of them were active in at least one assay; those are over-represented in the sample as a whole. The source made the active and inactive calls. The calls were made as follows: active = growth percent below 10; inactive = the rest.
value.type: growth

These solved cases illustrate the format of a correct answer.
[
  {
    "molecule": "O=C1C2=C(CCN(Cc3ccccc3)C2)N2CCN=C2N1Cc1ccc(C(F)(F)F)cc1",
    "target": "NCI/ADR-RES ovarian",
    "growth": "16.6% (inactive)"
  },
  {
    "molecule": "CC[C@@H](C[C@H](CCO)c1ccccc1)c1cc2ccccc2o1",
    "target": "NCI/ADR-RES ovarian",
    "growth": "93.1% (inactive)"
  },
  {
    "molecule": "CCCCN(CCCC)CCCn1c(=O)c2sc3ncccc3c2n2nnc(-c3ccccc3)c12",
    "target": "NCI/ADR-RES ovarian",
    "growth": "108% (inactive)"
  },
  {
    "molecule": "Cc1nc2ccc(C(=O)NCc3cc(C(=O)O)c(C)o3)cc2nc1C",
    "target": "NCI/ADR-RES ovarian",
    "growth": "106% (inactive)"
  },
  {
    "molecule": "C[C@H]1[C@H]2C3=CC[C@@H]4[C@@]5(C)C/C(=C/c6ccncc6)C(=O)C(C)(C)[C@@H]5CC[C@@]4(C)[C@]3(C)CC[C@@]2(C(=O)N2CCN(C)CC2)CC[C@@H]1C",
    "target": "NCI/ADR-RES ovarian",
    "growth": "80.6% (inactive)"
  },
  {
    "molecule": "CNC(=O)c1cc(Oc2ccc3nc(NC(=O)Nc4cc(C(F)(F)F)cc(C(F)(F)F)c4)sc3c2)ccn1",
    "target": "NCI/ADR-RES ovarian",
    "growth": "-38.2% (active)"
  },
  {
    "molecule": "COc1cccc(CCC2CCCN(c3cc(C)nc(N)n3)C2)c1 (centres undefined)",
    "target": "NCI/ADR-RES ovarian",
    "growth": "6.21% (active)"
  },
  {
    "molecule": "CC(C)(C)CC(C)(C)Nc1c(-c2ccc(-c3ccccc3)cc2)nc2cnccn12",
    "target": "NCI/ADR-RES ovarian",
    "growth": "97.7% (inactive)"
  }
]

query: Any idea what its growth is? The molecule is Nc1ccn(C2OC(F)(CO)C(O)C2F)c(=O)n1 (centres undefined)
result: 18.4% (inactive)
